Collected IC50 for BTK (Homo sapiens) across several studies; compounds listed below.

Lookup: Item Cn1cc(-c2cn3nccc3c(-c3ccc(CNC(=O)c4nnn(C(C)(C)C)n4)c(F)c3)n2)cn1 has what recorded IC50?
Found: < 1 nM

Lookup: So what's the measured IC50 for this one? CC(C)(C)c1ccc(C(=O)NC2CCCc3cc(-c4ncnc5[nH]ncc45)ccc32)nc1 (stereo not drawn)
Found: 100 to 999 nM

Lookup: // lookup IC50 for CC#CC(=O)N1CC2(CCNCC2)CC1c1nc(-c2ccc(C(=O)Nc3ccccn3)cc2)c2c(N)nccn12 (stereo not drawn)
Found: 46 nM

Lookup: Requested field: IC50. Item: O=C(CNc1ccccc1S(=O)(=O)c1ccccc1)N[C@@H]1CCCN(c2ncnc3[nH]ccc23)C1
Found: < 100 nM

Lookup: Item under review: O=C(CNc1cc(Cl)cc(Cl)c1)N1CCC[C@H](Nc2cc(Br)ncc2[N+](=O)[O-])C1 . Reported IC50?
Found: > 10000 nM

Lookup: Which value of IC50 has been reported for CN(C(=O)/C=C/CN(C)C1CC1)c1cccc(-n2c(=O)n(-c3ccc(Oc4cccc(F)c4)cc3)c3c(N)ncnc32)c1 in the records?
Found: < 100 nM

Lookup: Find the recorded IC50 belonging to Cn1cc(-c2cn3nccc3c(-c3cc(F)c(CNC(=O)c4nnn(C(C)(C)C)n4)cc3F)n2)cn1 and report it.
Found: < 1 nM

Lookup: Entry C=CS(=O)(=O)N1CCC(c2ccc(C(N)=O)c(-c3ccc(Oc4ccccc4)cc3)n2)CC1 has what IC50?
Found: < 500 nM

Lookup: Fill in: IC50 of Cn1cc(-c2ccnc(N3CCn4c5c(c(F)c4C3=O)CC(C)(C)C5)c2CO)cc(Nc2ccc(N3CCC4(CC3)COC4)cn2)c1=O is ___
Found: 0.26 nM

Lookup: Bench note: what IC50 did CC1(C)CCCN(S(=O)(=O)c2ccccc2NCC(=O)N[C@@H]2CCCN(c3ncnc4[nH]ncc34)C2)C1 show?
Found: < 100 nM

Lookup: Entry Cc1cc2c(cnn2C)cc1-c1cccc2c(N)c(C(N)=O)nnc12 has what IC50?
Found: 39.8 nM

Lookup: May I ask what IC50 has been recorded for C=CC(=O)Nc1cccc(Oc2nc(Nc3ccc(N4CCC(N5CCCCC5)CC4)cc3)nc3ccsc23)c1 ?
Found: ≤ 50 nM

Lookup: Fill in: IC50 of CC1CCCCC1NCC(=O)N1CCC[C@H](Nc2ncnc3[nH]ccc23)C1 (stereo partly drawn) is ___
Found: > 10000 nM

Lookup: Query (compound): C=CC(=O)N1C2C[C@@H](C1c1nc(-c3ccc(C(=O)Nc4cc(C(F)(F)F)ccn4)cc3)c3c(N)nccn13)N(C)C2 (stereo partly drawn) ; field requested: IC50
Found: 1.5 nM

Lookup: Given the compound Cc1cc(-c2ccnc(Nc3cnn(C)c3)n2)cnc1CNC(=O)c1cnc(C(C)(C)C)s1 , what is its reported IC50?
Found: 10 to 99 nM

Lookup: Recorded IC50 of C=CC(=O)Nc1cccc(Oc2c(Cl)cnc3[nH]c(-c4ccc(C(=O)N(C)C)cc4)nc23)c1 , please.
Found: ≤ 50 nM

Lookup: Sample CN(C(=O)/C=C/CN(C)C1CCC1)c1ccc(-n2nc(-c3ccc(Cl)cc3)c3c(N)ncnc32)cc1 — what was its IC50?
Found: < 100 nM

Lookup: Please look up its IC50: CC[C@@H](Nc1cc(Cl)cc(Cl)c1)C(=O)N1CCCC(Nc2ncnc3[nH]ccc23)C1C (stereo partly drawn)
Found: < 100 nM

Lookup: Data request, read-out IC50, for Cc1cc(-c2cc(Nc3cc4n(n3)CCN(CCO)C4)ncn2)ccc1CNC(=O)c1cnn(C(C)(C)C)c1
Found: < 10 nM

Lookup: For the compound shown here, Cc1cnc(-c2cnc3[nH]cc(C(=O)c4c(F)ccc(NS(=O)(=O)c5cccc(OC(F)F)c5)c4F)c3c2)[nH]1 , give the reported IC50.
Found: ≤ 10000 nM

Lookup: # IC50 lookup, item C[C@H]1CNC(=O)c2cnn3c(N)c(-c4ccccc4)c(nc23)NCc2cc(F)cnc2O1
Found: 1.11 nM

Lookup: Any idea what IC50 was measured for Cc1cc(-c2ccnc(Nc3cnn(C)c3)n2)ccc1CNC(=O)c1cc2c(s1)CCCC2 ?
Found: < 10 nM

Lookup: Which value of IC50 has been reported for C=CC(=O)Nc1cc(-n2c(=O)ccc3cnc4ccc(-c5cccnc5)cc4c32)ccc1C in the records?
Found: 115 nM

Lookup: // IC50 lookup, key: C=CC(=O)N(C)c1cccc(Nc2cc(Nc3ccc(Oc4ccccc4)cc3)ncn2)n1
Found: ≤ 10 nM

Lookup: # lookup: IC50 of C=CC(=O)N1CC[C@]2(C1)C[C@H](n1c(NC(=O)c3ccc(OC)nc3)nc3ccccc31)C2
Found: 27.4 nM

Lookup: GET /values?readout=IC50&item= C=CC(=O)N(C)N1CCC[C@@H](n2c(=O)n(-c3ccc(Oc4ccccc4)cc3)c3c(N)ncnc32)C1
Found: 76.8 nM

Lookup: I am curious: what IC50 value has been reported for O=C(CCl)NCc1cccc(-c2cc3nccc(-c4ccccc4)c3o2)c1 ?
Found: 300 to 3000 nM

Lookup: For CS(=O)(=O)c1cccc(-c2ccnc3[nH]cc(C(=O)c4cc(F)ccc4F)c23)c1 , what is its reported IC50?
Found: ≤ 10000 nM

Lookup: What does the data say about its IC50? Entry: COc1cc(-c2nn(-c3ccc(NC(=O)/C=C/CN(C)C)cc3)c3ncnc(N)c23)ccc1C
Found: < 100 nM

Lookup: What IC50 value was documented for this compound, CC#CC(=O)N1C2C[C@@H](C1c1nc(-c3ccc(Oc4ccccc4)cc3)c3c(N)nccn13)N(C(C)C)C2 (stereo partly drawn) ?
Found: 30 nM
